# credit: ChEMBL document CHEMBL5303573

assay_explanation: The drug is tested on Subdoligranulum variabile strain: DSM15176 for biotransformation. The drug concentrations were measured before and after a 12-h incubation by liquid-chromatography-coupled mass spectrometry (LC–MS)
particulars: 2 µM
property: Bacterial Biotransformation

Previously resolved entries follow.
1. CCOc1ccccc1OCCN[C@H](C)Cc1ccc(OC)c(S(N)(=O)=O)c1.Cl [TAMSULOSIN HYDROCHLORIDE] :: Compound NOT metabolized
2. CCOC(=O)[C@H](CCc1ccccc1)N[C@@H](C)C(=O)N1[C@H](C(=O)O)C[C@@H]2CCC[C@@H]21 :: Compound NOT metabolized
3. COc1ccc2[nH]c([S+]([O-])Cc3ncc(C)c(OC)c3C)nc2n1 (configuration not stated) :: Compound metabolized
4. O=C(O)c1cc(/N=N/c2ccc(S(=O)(=O)Nc3ccccn3)cc2)ccc1O :: Compound metabolized
5. O=P1(N(CCCl)CCCl)NCCCO1 (configuration not stated) [CYCLOPHOSPHAMIDE ANHYDROUS] :: Compound NOT metabolized

I have 5 compounds here; please give me Bacterial Biotransformation for each one.
1. Cc1cc2c(cc1S(N)(=O)=O)S(=O)(=O)CCC2
2. C#C[C@]1(O)CC[C@H]2[C@@H]3CCC4=Cc5oncc5C[C@]4(C)[C@H]3CC[C@@]21C
3. CC(C)(C)NC[C@H](O)COc1nsnc1N1CCOCC1.O=C(O)/C=C\C(=O)O [TIMOLOL MALEATE]
4. CN1C(=O)CC(C)(c2ccccc2)C1=O (configuration not stated) [METHSUXIMIDE]
5. CC(=O)CC(c1ccccc1)c1c(O)c2ccccc2oc1=O (configuration not stated)

stdout:
1. Compound NOT metabolized
2. Compound metabolized
3. Compound NOT metabolized
4. Compound NOT metabolized
5. Compound NOT metabolized

Hi there! I need Bacterial Biotransformation for each item below, if you can.
1. Nc1ccc(/N=N/c2ccccc2)c(N)n1
2. COC(=O)[C@H](c1ccccc1Cl)N1CCc2sccc2C1.O=S(=O)(O)O [CLOPIDOGREL BISULFATE]
3. CC(=O)CCCCn1c(=O)c2c(ncn2C)n(C)c1=O
4. Cc1ccc(S(=O)(=O)NC(=O)NN2CC3CCCC3C2)cc1 (configuration not stated) [GLICLAZIDE]

stdout:
1. Compound metabolized
2. Compound NOT metabolized
3. Compound NOT metabolized
4. Compound NOT metabolized

// input: 3 compounds below; output: Bacterial Biotransformation for each
1. CC(NC(C)(C)C)C(=O)c1cccc(Cl)c1 (configuration not stated)
2. CCN(CC)C(C)CN1c2ccccc2Sc2ccccc21 (configuration not stated)
3. CN(C)CCC=C1c2ccccc2COc2ccccc21 [DOXEPIN]

stdout:
["Compound NOT metabolized", "Compound NOT metabolized", "Compound NOT metabolized"]

----------
assay_explanation: The drug is tested on Ruminococcus torques strain: ATCC27756 for biotransformation. The drug concentrations were measured before and after a 12-h incubation by liquid-chromatography-coupled mass spectrometry (LC–MS)
Type: ADME
Set-up: dose 2 uM, timepoint 0 vs 12 hours
particulars: 2 µM
property: Bacterial Biotransformation

1. Cc1nc2n(c(=O)c1CCN1CCC(c3noc4cc(F)ccc34)CC1)CCCC2 :: Compound NOT metabolized
2. CC(NC(C)(C)C)C(=O)c1cccc(Cl)c1 (stereo not drawn) :: Compound NOT metabolized
3. CCOC(=O)C1=C(C)NC(C)=C(C(=O)OC)C1c1cccc([N+](=O)[O-])c1 (stereo not drawn) :: Compound metabolized
4. CN(C)CCOC(c1ccc(Cl)cc1)c1ccccn1.O=C(O)/C=C\C(=O)O (stereo not drawn) [CARBINOXAMINE MALEATE] :: Compound NOT metabolized
5. COc1ccc(CCN(C)CCCC(C#N)(c2ccc(OC)c(OC)c2)C(C)C)cc1OC (stereo not drawn) :: Compound NOT metabolized
6. COc1c2occc2cc2ccc(=O)oc12 :: Compound NOT metabolized
7. NC(=O)N1c2ccccc2CC(=O)c2ccccc21 [OXCARBAZEPINE] :: Compound metabolized
8. Cc1nc(Nc2ncc(C(=O)Nc3c(C)cccc3Cl)s2)cc(N2CCN(CCO)CC2)n1.O :: Compound NOT metabolized
9. CCCC(C)(COC(N)=O)COC(=O)NC(C)C (stereo not drawn) :: Compound NOT metabolized
10. O=c1n(CCCN2CCN(c3cccc(Cl)c3)CC2)nc2ccccn12 :: Compound NOT metabolized

Below are 3 molecules. Give each one its Bacterial Biotransformation.
1. CC(N)C12CC3CC(CC(C3)C1)C2 (stereo not drawn)
2. CCN(CC)C(=O)C1(c2ccccc2)CC1CN (stereo not drawn)
3. CN1CCN(C(=O)O[C@H]2c3nccnc3C(=O)N2c2ccc(Cl)cn2)CC1

stdout:
Compound NOT metabolized
Compound NOT metabolized
Compound NOT metabolized
